- Run description: Randomized bioavailability study of 17-HPC, SC injection in triceps area (1.1 or 1.2 mL) vs IM injection (1.0 mL)
- Type: in vivo, human
- Condition: female, human, plasma, im, 250 mg, IM 1.0 mL (250 mg) gluteus maximus; read-out: AUC(inf), Least Squares Geometric Mean
Value kind: AUC(0-inf) (ng·h/mL)

[[record]]
compound = "CCCCCC(=O)O[C@]1(C(C)=O)CC[C@H]2[C@@H]3CCC4=CC(=O)CC[C@]4(C)[C@H]3CC[C@@]21C [17-HPC, 17-alpha-hydroxyprogesterone caproate]"
value_kind = "AUC(0-inf)"
u = "ng·h/mL"
assay_value = 2910

